Measured selectivity ratio accompanies every entry in the list below.
- Procedure Details: Therapeutic index, ratio of TC50 for human CEM-SS cells to EC50 for HIV2 ROD infected in human CEM-SS cells
- Assay type: cell-based
- Measurement Conditions: CEM-SS cells, read-out: TI
Form: value (number only, do not type unit).

Guide cases for selectivity ratio, answers given:
// recorded selectivity ratio for CCc1c(Sc2cc(C)cc(C)c2)n(CCC2CC=CC2)c(=O)[nH]c1=O : 11.4

Summary for this compound, CCc1c(Oc2ccccc2)n(CC2CC=CC2)c(=O)[nH]c1=O : selectivity ratio is 2.4

So, CCc1c(C(=O)c2cc(C)cc(C)c2)n(CC2=CCCC2)c(=O)[nH]c1=O ? Its selectivity ratio was 42.6

response.value for Cc1cc(C)cc(C(=O)c2c(C)c(=O)[nH]c(=O)n2CC2CC=CC2)c1 (field: selectivity ratio) = 2.8

# input for lookup
Per the records, this compound ( CCc1c(Sc2cc(C)cc(C)c2)n(CC2CCC2)c(=O)[nH]c1=O ) has selectivity ratio equal to 16.3
